measured target: T1, monkey CD22 protein (ACROBiosystems, catalog number SI2-R52Ha) (monkey, UniProt F6W485 20-688)
T1 construct: commercial protein; also called monkey CD22-ECD; monkey CD22-ECD-His
T1 sequence: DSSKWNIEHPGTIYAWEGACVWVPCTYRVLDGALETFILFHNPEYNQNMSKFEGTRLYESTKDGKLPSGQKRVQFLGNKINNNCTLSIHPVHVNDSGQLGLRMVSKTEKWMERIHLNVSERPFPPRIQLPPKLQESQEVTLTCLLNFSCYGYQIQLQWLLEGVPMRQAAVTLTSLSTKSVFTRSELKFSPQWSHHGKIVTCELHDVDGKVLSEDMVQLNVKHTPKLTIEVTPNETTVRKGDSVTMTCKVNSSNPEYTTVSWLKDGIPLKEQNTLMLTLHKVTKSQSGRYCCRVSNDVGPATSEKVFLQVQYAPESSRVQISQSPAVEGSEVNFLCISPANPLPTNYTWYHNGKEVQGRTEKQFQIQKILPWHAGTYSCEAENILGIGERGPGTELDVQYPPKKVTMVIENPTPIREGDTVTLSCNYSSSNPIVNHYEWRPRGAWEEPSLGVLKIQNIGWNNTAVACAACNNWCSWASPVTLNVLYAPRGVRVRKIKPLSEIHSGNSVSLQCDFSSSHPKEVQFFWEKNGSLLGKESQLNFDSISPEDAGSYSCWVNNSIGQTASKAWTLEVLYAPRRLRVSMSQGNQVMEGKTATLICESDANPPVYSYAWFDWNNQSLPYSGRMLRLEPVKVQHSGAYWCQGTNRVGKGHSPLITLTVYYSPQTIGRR
method summary: ELISA, coated monkey CD22 protein, antibody 10 nM
value kind: OD450 (OD450)
I only need the number, in OD450, no unit after it.

// worked examples, OD450 included
binder | unit | OD450
F1.280.1 (antibody, human IgG1, kappa, V domains shown, human-murine chimeric IgG1 kappa) VH: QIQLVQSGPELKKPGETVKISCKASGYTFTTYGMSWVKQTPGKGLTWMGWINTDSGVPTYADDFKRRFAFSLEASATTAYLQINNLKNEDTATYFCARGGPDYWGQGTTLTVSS VL: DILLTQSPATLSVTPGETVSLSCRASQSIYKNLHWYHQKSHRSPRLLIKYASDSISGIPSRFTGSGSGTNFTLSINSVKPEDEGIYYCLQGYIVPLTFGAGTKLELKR | OD450 | 0.08
F2.70.2 (antibody, human IgG1, lambda, V domains shown, human-murine chimeric IgG1 lambda) VH: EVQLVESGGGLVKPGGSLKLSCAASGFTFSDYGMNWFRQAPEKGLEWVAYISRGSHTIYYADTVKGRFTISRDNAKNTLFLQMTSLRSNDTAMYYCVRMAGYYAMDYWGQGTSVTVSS VL: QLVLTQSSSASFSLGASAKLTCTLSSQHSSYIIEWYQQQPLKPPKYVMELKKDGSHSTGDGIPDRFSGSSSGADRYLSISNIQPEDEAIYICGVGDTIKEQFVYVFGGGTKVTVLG | OD450 | 0.08
F2.42.9 (antibody, human IgG1, lambda, V domains shown, human-murine chimeric IgG1 lambda; VL name legible) VH: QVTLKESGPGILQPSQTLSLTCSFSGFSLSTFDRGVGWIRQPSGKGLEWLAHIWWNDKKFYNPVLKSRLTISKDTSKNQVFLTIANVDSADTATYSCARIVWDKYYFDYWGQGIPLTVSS VL: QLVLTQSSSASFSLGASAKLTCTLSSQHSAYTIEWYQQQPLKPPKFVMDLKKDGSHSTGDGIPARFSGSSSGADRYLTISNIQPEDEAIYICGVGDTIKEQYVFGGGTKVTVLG | OD450 | 1.65
F1.7.6 (antibody, human IgG1, kappa, V domains shown, human-murine chimeric IgG1 kappa; VL name legible) VH: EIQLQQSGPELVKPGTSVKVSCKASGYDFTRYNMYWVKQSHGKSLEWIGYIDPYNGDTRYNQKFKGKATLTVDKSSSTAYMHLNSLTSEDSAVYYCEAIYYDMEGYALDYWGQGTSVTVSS VL: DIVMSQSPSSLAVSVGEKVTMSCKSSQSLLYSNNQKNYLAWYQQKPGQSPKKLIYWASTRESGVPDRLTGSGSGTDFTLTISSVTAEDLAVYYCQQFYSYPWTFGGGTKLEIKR | OD450 | 0.17

Shifting focus to the binder that follows.
Summary for this binder, F2.343.16 (antibody, human IgG1, lambda, V domains shown, human-murine chimeric IgG1 lambda; VL name legible) VH: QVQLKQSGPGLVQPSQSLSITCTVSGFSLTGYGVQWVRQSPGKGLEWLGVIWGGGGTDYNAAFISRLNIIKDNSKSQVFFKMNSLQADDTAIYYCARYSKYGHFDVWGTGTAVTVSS VL: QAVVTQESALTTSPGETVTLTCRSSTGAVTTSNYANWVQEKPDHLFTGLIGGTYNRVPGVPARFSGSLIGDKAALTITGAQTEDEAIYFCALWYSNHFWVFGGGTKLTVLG : OD450 is 0.06
